target: FGFR3 (UniProt P22607); assay: phosphorylation enrichment, bacterial display (enrichment ratio); higher = better substrate or ligand; peptides without Tyr show the background;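 also: 11-residue human phosphosite peptides and single-mutation variants displayed on the E. coli surface, counted by deep sequencing, each peptide's frequency after selection divided by its frequency in the unselected input library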;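 also: frequency after pTyr selection over input frequency; kinase dosed for 20-30% of maximal phosphorylation in three min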
Sequence (P22607 whole entry, looked up): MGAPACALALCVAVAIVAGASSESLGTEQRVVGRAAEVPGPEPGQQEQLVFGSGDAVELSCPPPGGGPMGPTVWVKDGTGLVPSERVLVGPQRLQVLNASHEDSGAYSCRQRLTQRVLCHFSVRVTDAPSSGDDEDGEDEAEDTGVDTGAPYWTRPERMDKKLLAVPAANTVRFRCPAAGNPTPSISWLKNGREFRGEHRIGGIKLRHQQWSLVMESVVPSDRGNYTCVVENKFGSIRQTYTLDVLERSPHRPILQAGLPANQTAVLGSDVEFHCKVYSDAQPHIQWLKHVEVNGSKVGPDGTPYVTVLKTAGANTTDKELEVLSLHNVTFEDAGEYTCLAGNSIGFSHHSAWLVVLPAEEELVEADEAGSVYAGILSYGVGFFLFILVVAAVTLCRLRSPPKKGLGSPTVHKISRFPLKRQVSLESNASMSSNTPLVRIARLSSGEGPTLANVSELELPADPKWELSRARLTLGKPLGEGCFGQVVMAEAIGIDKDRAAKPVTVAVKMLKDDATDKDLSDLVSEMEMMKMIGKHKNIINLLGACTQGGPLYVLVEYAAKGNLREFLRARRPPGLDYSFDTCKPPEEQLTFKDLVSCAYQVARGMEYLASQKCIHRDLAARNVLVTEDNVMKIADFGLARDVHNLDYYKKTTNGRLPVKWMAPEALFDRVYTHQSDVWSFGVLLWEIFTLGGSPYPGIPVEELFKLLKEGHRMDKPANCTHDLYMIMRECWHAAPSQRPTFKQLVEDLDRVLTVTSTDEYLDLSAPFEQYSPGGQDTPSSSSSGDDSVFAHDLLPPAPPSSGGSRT
# binarize phosphorylation enrichment: threshold 0.7 inclusive, high side Criterion met, low side Criterion not met

### Prompt Given the entry ADRNHYRRYPR [YBX1_Y145] , answer whether its phosphorylation enrichment meets or surpasses 0.7.
### Response Criterion not met

### Prompt Given the entry WDLSEYSFKDP [ITGA3_Y237_YF] , answer whether its phosphorylation enrichment meets or surpasses 0.7.
### Response Criterion met

### Prompt Given the entry DSGRDYVSQFE [APOA1_Y53] , answer whether its phosphorylation enrichment meets or surpasses 0.7.
### Response Criterion not met

### Prompt Given the entry RSDSTYRMSAT [NHS_Y1532_S1531T] , answer whether its phosphorylation enrichment meets or surpasses 0.7.
### Response Criterion not met

### Prompt Given the entry LLNPRYNLPLD [TOM1L1_Y109] , answer whether its phosphorylation enrichment meets or surpasses 0.7.
### Response Criterion met

### Prompt Given the entry CPSLLYSPVSS [CAMKK2_Y128_P127L] , answer whether its phosphorylation enrichment meets or surpasses 0.7.
### Response Criterion met

### Prompt Given the entry SFPPTYRFERG [INPPL1_Y661_YF] , answer whether its phosphorylation enrichment meets or surpasses 0.7.
### Response Criterion not met

### Prompt Given the entry SLEKSYELLDG [ACTB_Y240_P243L] , answer whether its phosphorylation enrichment meets or surpasses 0.7.
### Response Criterion met

### Prompt Given the entry NAMRRHIEEFQ [MNS1_Y244_Y244H] , answer whether its phosphorylation enrichment meets or surpasses 0.7.
### Response Criterion not met

### Prompt Given the entry HSLLQYGGSAN [ANK1_Y624_R619H] , answer whether its phosphorylation enrichment meets or surpasses 0.7.
### Response Criterion not met

### Prompt Given the entry ERSMSYCDESR [SMG1_Y143_S144C] , answer whether its phosphorylation enrichment meets or surpasses 0.7.
### Response Criterion not met

### Prompt Given the entry KTDVHYRSLGG [DYSF_Y1858] , answer whether its phosphorylation enrichment meets or surpasses 0.7.
### Response Criterion not met

### Prompt Given the entry SPDMLYQFLKQ [RPAP3_Y567_YF] , answer whether its phosphorylation enrichment meets or surpasses 0.7.
### Response Criterion met

### Prompt Given the entry FGRTFYNQAIM [MCCC2_Y196] , answer whether its phosphorylation enrichment meets or surpasses 0.7.
### Response Criterion not met

### Prompt Given the entry AGQEGYDRLRP [RAC1_Y64_D63G] , answer whether its phosphorylation enrichment meets or surpasses 0.7.
### Response Criterion not met

### Prompt Given the entry AGTILSHAHLD [ASS1_Y291_Y291S] , answer whether its phosphorylation enrichment meets or surpasses 0.7.
### Response Criterion not met

### Prompt Given the entry RLAKRYLIWEC [SCN5A_Y694_Q692K] , answer whether its phosphorylation enrichment meets or surpasses 0.7.
### Response Criterion met

### Prompt Given the entry SVMVPYEPPEV [TP53_Y220_V217M] , answer whether its phosphorylation enrichment meets or surpasses 0.7.
### Response Criterion not met

### Prompt Given the entry NDEDIYKGLPD [VAV3_Y141] , answer whether its phosphorylation enrichment meets or surpasses 0.7.
### Response Criterion met

### Prompt Given the entry GSERRYSREGG [PTPRN2_Y139] , answer whether its phosphorylation enrichment meets or surpasses 0.7.
### Response Criterion not met

### Prompt Given the entry MDNQEYKDAYT [BRDT_Y331_K336T] , answer whether its phosphorylation enrichment meets or surpasses 0.7.
### Response Criterion met

### Prompt Given the entry QEIATYRRLQE [KRT14_Y415_L419Q] , answer whether its phosphorylation enrichment meets or surpasses 0.7.
### Response Criterion not met

### Prompt Given the entry VSLLPYFPAIM [IPO4_Y518_A513V] , answer whether its phosphorylation enrichment meets or surpasses 0.7.
### Response Criterion met

### Prompt Given the entry KIKGWYEKCEP [KRT26_Y119] , answer whether its phosphorylation enrichment meets or surpasses 0.7.
### Response Criterion met

### Prompt Given the entry HELYVYKSDEN [DOCK3_Y548_C550S] , answer whether its phosphorylation enrichment meets or surpasses 0.7.
### Response Criterion met

### Prompt Given the entry ALAQKYHGGGG [HBB_Y146_H144Q] , answer whether its phosphorylation enrichment meets or surpasses 0.7.
### Response Criterion not met

### Prompt Given the entry PGVDIYISPNM [PADI3_Y51] , answer whether its phosphorylation enrichment meets or surpasses 0.7.
### Response Criterion met

### Prompt Given the entry WDLPEYSYKDP [ITGA3_Y237_S235P] , answer whether its phosphorylation enrichment meets or surpasses 0.7.
### Response Criterion met

### Prompt Given the entry PSQRRYVYYYS [PTEN_Y174] , answer whether its phosphorylation enrichment meets or surpasses 0.7.
### Response Criterion met

### Prompt Given the entry WQQQSYLASGI [CTNNB1_Y30_D32A] , answer whether its phosphorylation enrichment meets or surpasses 0.7.
### Response Criterion not met

### Prompt Given the entry RSHLSYDVTPE [IQGAP3_Y1098_P1097S] , answer whether its phosphorylation enrichment meets or surpasses 0.7.
### Response Criterion met

### Prompt Given the entry FFHCTYKQRMI [CLEC12A_Y242_K244Q_YF] , answer whether its phosphorylation enrichment meets or surpasses 0.7.
### Response Criterion met

### Prompt Given the entry RELGEYPLAEF [ALDH1A3_Y492_A493P_YF] , answer whether its phosphorylation enrichment meets or surpasses 0.7.
### Response Criterion met

### Prompt Given the entry AKYLGYPPPEI [KDR_Y357] , answer whether its phosphorylation enrichment meets or surpasses 0.7.
### Response Criterion not met

### Prompt Given the entry AHAGEYGVEAL [HBA1_Y25_A27V] , answer whether its phosphorylation enrichment meets or surpasses 0.7.
### Response Criterion not met

### Prompt Given the entry CTNPQYLAAGS [RABL3_Y185_R184Q] , answer whether its phosphorylation enrichment meets or surpasses 0.7.
### Response Criterion not met

### Prompt Given the entry INASGYRVGPA [ACSM1_Y477_I479V] , answer whether its phosphorylation enrichment meets or surpasses 0.7.
### Response Criterion not met

### Prompt Given the entry GHNDVYISEHV [GRIN2A_Y1423] , answer whether its phosphorylation enrichment meets or surpasses 0.7.
### Response Criterion not met

### Prompt Given the entry QDGYSYLSRQM [LDLR_Y847_P848L] , answer whether its phosphorylation enrichment meets or surpasses 0.7.
### Response Criterion not met

### Prompt Given the entry DLLMQYPKAQG [FAM83C_Y600] , answer whether its phosphorylation enrichment meets or surpasses 0.7.
### Response Criterion not met

### Prompt Given the entry YRASYYRKGGC [ALK_Y1283] , answer whether its phosphorylation enrichment meets or surpasses 0.7.
### Response Criterion not met

### Prompt Given the entry DTKPVYQNLRQ [BOD1_Y82_A81V] , answer whether its phosphorylation enrichment meets or surpasses 0.7.
### Response Criterion not met

### Prompt Given the entry SMGHRYIEVFK [HNRNPF_Y82] , answer whether its phosphorylation enrichment meets or surpasses 0.7.
### Response Criterion not met

### Prompt Given the entry PLGVPYLDKPP [JMJD7_Y31_A28G] , answer whether its phosphorylation enrichment meets or surpasses 0.7.
### Response Criterion met

### Prompt Given the entry IIEDPYFGNDS [ACP1_Y132_YF] , answer whether its phosphorylation enrichment meets or surpasses 0.7.
### Response Criterion met

### Prompt Given the entry PFAEPYADFGG [APBA1_Y187_S184A_YF] , answer whether its phosphorylation enrichment meets or surpasses 0.7.
### Response Criterion met

### Prompt Given the entry RPFVFYFSFLL [PTEN_Y177_R173P_YF] , answer whether its phosphorylation enrichment meets or surpasses 0.7.
### Response Criterion met

### Prompt Given the entry RGMVMYTSKDR [ZG16B_Y136] , answer whether its phosphorylation enrichment meets or surpasses 0.7.
### Response Criterion not met

### Prompt Given the entry RAILDYIASKF [GSTA3_Y74_N73D_YF] , answer whether its phosphorylation enrichment meets or surpasses 0.7.
### Response Criterion met

### Prompt Given the entry YCRIMYDIFPF [INTS13_Y67] , answer whether its phosphorylation enrichment meets or surpasses 0.7.
### Response Criterion met

### Prompt Given the entry EILLSYLRTGY [TGM1_Y365] , answer whether its phosphorylation enrichment meets or surpasses 0.7.
### Response Criterion met

### Prompt Given the entry NCLREYVAGRF [CRB1_Y711] , answer whether its phosphorylation enrichment meets or surpasses 0.7.
### Response Criterion not met

### Prompt Given the entry QKTGDYYDLYG [PTPN11_Y62_N58K] , answer whether its phosphorylation enrichment meets or surpasses 0.7.
### Response Criterion met

### Prompt Given the entry LSNPAYRLLLA [DDR1_Y513] , answer whether its phosphorylation enrichment meets or surpasses 0.7.
### Response Criterion met

### Prompt Given the entry RRGLLYDSDEE [MCM2_Y137] , answer whether its phosphorylation enrichment meets or surpasses 0.7.
### Response Criterion met

Entry source: the supplement of paper PMC10065799
